Test system: MOLT-4
Assay: NCI tumour cell line growth inhibition, 48 h
Active and inactive are the calls of the source. No stated cut-off is given here; in the data, active = GI50 up to about 1.1 µM and inactive = higher.
Pick one: active, inactive

See these solved cases before continuing.
- CCN(CC)CCCNc1ccc2ncn3c4ccc(O)cc4c(=O)c1c23: active
- COc1c2ccccc2c(OC)c2nc(C)ccc12: inactive
- NC(=O)c1ccc(NCC2=CC(=O)C=CC2=O)cc1: inactive
- CCOC(=O)c1csc(NC(=O)CN(C)C)n1: inactive
- Cn1c(-c2ccc(C=O)o2)ccc1-c1ccc(C=O)o1: inactive

Incoming: Record lookup: outcome of this test for O=C(O)c1nc(-c2ccccc2)ncc1-c1nnnn1-c1ccccc1 ?
Outgoing: inactive

Incoming: How was O=C(O)c1ccccn1 classified in this test?
Outgoing: inactive
